Test system: COLO 205
Assay: cells
Details: Homo sapiens, COLO 205, 48 h, read-out: LC50
Assign CC50 to each entry below.
Answers are plain numbers, in µM.

Example entries and their recorded answers appear below.
COMPOUND	PROPERTY_NAME	ASSAY_RESULT
Nc1nc(N)c2c(n1)NC(c1ccccc1)CC(c1ccc(Nc3nc(NCCO)nc(Nc4ccc(Cl)cc4)n3)cc1)=N2 (centres unmarked) [33a]	CC50	6.09
Nc1nc(N)c2c(n1)NC(c1ccc(F)cc1)CC(c1ccc(Nc3nc(NCCO)nc(Nc4ccc(Cl)cc4)n3)cc1)=N2 (centres unmarked) [33f]	CC50	5.8
Cc1ccc(/C=C/C(=O)c2ccc(S(=O)(=O)NCCNc3nc(Nc4ccc(F)cc4)nc(N(C)C)n3)cc2)cc1 [24b]	CC50	55.1

# batch size: 4; output CC50 per entry
1. COc1cc(/C=C/C(=O)c2cc(OC)c(OC)c(OC)c2)ccc1Oc1nc(NCCO)nc(N2CCOCC2)n1 [20d]
2. CN(C)c1nc(NCCNS(=O)(=O)c2ccc(C(=O)/C=C/c3ccccc3)cc2)nc(N2CCOCC2)n1 [23a]
3. Cc1ccc(C2CC(c3ccc(Nc4nc(NCCO)nc(Nc5ccc(Cl)cc5)n4)cc3)=Nc3c(N)nc(N)nc3N2)cc1 (centres unmarked) [33b]
4. CN(C)c1nc(NCCNS(=O)(=O)c2ccc(C(=O)/C=C/c3ccc(Cl)cc3)cc2)nc(N2CCOCC2)n1 [23e]

Marked response:
[9.18, 80.7, 6.09, 70.8]

# batch size: 8; output CC50 per entry
1. CN(C)c1nc(NCCNS(=O)(=O)c2ccc(C(=O)/C=C/c3ccc(F)cc3)cc2)nc(Nc2ccc(F)cc2)n1 [24f]
2. COc1cc(/C=C/C(=O)c2cc(OC)c(OC)c(OC)c2)ccc1Oc1nc(Nc2ccc(F)cc2)nc(N(C)C)n1 [21d]
3. CN(C)c1nc(NCCNS(=O)(=O)c2ccc(C3=Nc4c(N)nc(N)nc4NC(c4ccc(C(F)(F)F)cc4)C3)cc2)nc(N2CCOCC2)n1 (centres unmarked) [30g]
4. COc1cc(/C=C/C(=O)c2ccc(S(=O)(=O)NCCNc3nc(N(C)C)nc(N4CCOCC4)n3)cc2)cc(OC)c1OC [23d]
5. Nc1nc(N)c2c(n1)NC(c1ccc(C(F)(F)F)cc1)CC(c1ccc(Nc3nc(NCCO)nc(Nc4ccc(Cl)cc4)n3)cc1)=N2 (centres unmarked) [33g]
6. CN(C)c1nc(NCCNS(=O)(=O)c2ccc(C(=O)/C=C/c3ccccc3)cc2)nc(Nc2ccc(F)cc2)n1 [24a]
7. CN(C)c1nc(NCCNS(=O)(=O)c2ccc(C3=Nc4c(N)nc(N)nc4NC(c4ccc(Cl)cc4)C3)cc2)nc(Nc2ccc(F)cc2)n1 (centres unmarked) [31e]
8. COc1ccc(/C=C/C(=O)c2ccc(S(=O)(=O)NCCNc3nc(Nc4ccc(F)cc4)nc(N(C)C)n3)cc2)cc1 [24c]

Marked response:
1. 6.56
2. 47.5
3. 76.2
4. 16.6
5. 5.25
6. 56.7
7. 25.6
8. 45.7

* * *

Test system: RPMI-8226
Test: cells
Conditions: Homo sapiens, RPMI-8226, 48 h, read-out: LC50
PROPERTY_NAME: CC50

Example entries and their recorded answers appear below.
COMPOUND	CC50
CN(C)c1nc(NCCNS(=O)(=O)c2ccc(C(=O)/C=C/c3ccc(F)cc3)cc2)nc(N2CCOCC2)n1 [23f]	> 100 µM
COc1cc(/C=C/C(=O)c2ccc(C)cc2)ccc1Oc1nc(Nc2ccc(F)cc2)nc(N(C)C)n1 [21b]	> 100 µM
CN(C)c1nc(NCCNS(=O)(=O)c2ccc(C3=Nc4c(N)nc(N)nc4NC(c4ccc(C(F)(F)F)cc4)C3)cc2)nc(N2CCOCC2)n1 (stereo not shown) [30g]	> 100 µM

API: the following record is the query input.
Exam item: Quick one: CC50 of CN(C)c1nc(NCCNS(=O)(=O)c2ccc(C3=Nc4c(N)nc(N)nc4NC(c4ccc(C(F)(F)F)cc4)C3)cc2)nc(Nc2ccc(F)cc2)n1 (stereo not shown) [31g] ?
Marked response: 86 µM
